- assayComment: Assay C: permeability in CACO-2 cells
- Type: in vitro ADME
- measurementConditions: human, pH 7.2; Table 7, compounds of the invention, CACO-2 cells, permeability B-A/permeability A-B; read-out: Efflux Ratio
Please mark Fulfilled if the recorded efflux ratio is equal to or greater than 10, and Not fulfilled if it falls below.

> print(dat)
                                   compound       category
1  Cn1cnnc1C1(F)CCN(c2c(C#N)cc(C(C)(F)F)nc2-c2cnc3nn(C)c(C(F)(F)F)c3c2)CC1 [Example 9]  Not fulfilled
2  Cn1cnnc1C1(F)CCN(c2c(C#N)cc(-c3ccc(F)cc3)nc2-c2ccnnc2)CC1 [Example 18]      Fulfilled
3  Cc1ncc(-c2cc(C#N)c(N3CCC(F)(c4nncn4C)CC3)c(-c3cnc4nn(C(F)(F)F)cc4c3)n2)cn1 [Example 25]      Fulfilled
4  Cn1cnnc1C1(F)CCN(c2c(C#N)cc(C3CC3)nc2-c2ccnnc2)CC1 [Example 1]  Not fulfilled
5  Cc1ncc(-c2cc(C#N)c(N3CCC(F)(c4nncn4C)CC3)c(-c3cnc4nn(C(F)(F)F)cc4c3)n2)o1 [Example 19]  Not fulfilled
6  Cc1ccc(-c2cc(C#N)c(N3CCC(F)(c4nncn4C)CC3)c(-c3cnc4nn(C(F)(F)F)cc4c3)n2)cn1 [Example 22]  Not fulfilled
7  Cc1cc(-c2nc(C3CC3)cc(C#N)c2N2CCC(F)(c3nncn3C)CC2)cnn1 [Example 12]  Not fulfilled

* * *

- System: murine hepatocytes
- assayComment: Assay E: stability in murine hepatocytes
- Assay type: in vitro ADME, mouse
- measurementConditions: Table 12, compounds of the invention, 1 μM, 5% species serum
- Protocol: The metabolic degradation of the test compound is assayed in a murine hepatocyte suspension. […] Decline of parent compound is analyzed by HPLC-MS/MS CLint is calculated as follows CL_[…]=Dose/AUC=(C0/CD)/(AUD+clast/k)×1000/60. […] The calculated in vitro hepatic intrinsic clearance can be scaled up to the intrinsic in vivo hepatic Clearance and used to predict hepatic in vivo blood clearance (CL) by the use of a liver model (well stirred model). […]
attributeMeasured: Mouse Hepatocyte Stability QH

> print(dat)
                                    compound              attributemeasured  measvalue
 1  Cc1cc(C#N)c(N2CCC(F)(c3nncn3C)CC2)c(-c2cnc3nn(C(F)(F)F)cc3c2)n1 [Example 5]  Mouse Hepatocyte Stability QH        16%
 2  Cn1cnnc1C1(F)CCN(c2c(C#N)cc(C3CC3)nc2-c2ccnnc2)CC1 [Example 1]  Mouse Hepatocyte Stability QH        49%
 3  Cc1ccc(-c2cc(C#N)c(N3CCC(F)(c4nncn4C)CC3)c(-c3cnc4nn(C(F)(F)F)cc4c3)n2)cn1 [Example 22]  Mouse Hepatocyte Stability QH        17%
 4  Cn1cnnc1C1(F)CCN(c2c(C#N)cc(-c3cnc(C(F)(F)F)nc3)nc2-c2cnc3nn(C(F)(F)F)cc3c2)CC1 [Example 20]  Mouse Hepatocyte Stability QH       <12%
 5  Cc1ncc(-c2cc(C#N)c(N3CCC(F)(c4nncn4C)CC3)c(-c3cnc4nn(C(F)(F)F)cc4c3)n2)o1 [Example 19]  Mouse Hepatocyte Stability QH       <12%
 6  Cc1cc(-c2nc(C3CC3)cc(C#N)c2N2CCC(F)(c3nncn3C)CC2)cnn1 [Example 12]  Mouse Hepatocyte Stability QH        21%
 7  Cn1cnnc1C1(F)CCN(c2c(C#N)cc(C3CC3)nc2-c2cnc3nn(C)c(C(F)(F)F)c3c2)CC1 [Example 11]  Mouse Hepatocyte Stability QH        32%
 8  Cn1cnnc1C1(F)CCN(c2c(C#N)cc(C(F)(F)F)nc2-c2cnc3nn(C(C)(C)C)cc3c2C(F)F)CC1 [Example 15]  Mouse Hepatocyte Stability QH       <12%
 9  Cc1ncc(-c2cc(C#N)c(N3CCC(F)(c4nncn4C)CC3)c(-c3cnc4nn(C(F)(F)F)cc4c3)n2)cn1 [Example 25]  Mouse Hepatocyte Stability QH        38%
10  Cc1nn(C)cc1-c1cc(C#N)c(N2CCC(F)(c3nncn3C)CC2)c(-c2cnc3nn(C(F)(F)F)cc3c2)n1 [Example 17]  Mouse Hepatocyte Stability QH        18%
11  Cn1cnnc1C1(F)CCN(c2c(C#N)cc(-c3ccc(F)cc3)nc2-c2ccnnc2)CC1 [Example 18]  Mouse Hepatocyte Stability QH        44%
12  Cn1cnnc1C1(F)CCN(c2c(C#N)cc(C(F)(F)F)nc2-c2cnc3nn(C(C)(C)C)c(C4CC4)c3c2)CC1 [Example 26]  Mouse Hepatocyte Stability QH        27%
13  Cn1cc(-c2cc(C#N)c(N3CCC(F)(c4nncn4C)CC3)c(-c3cnc4nn(C(F)(F)F)cc4c3)n2)cn1 [Example 24]  Mouse Hepatocyte Stability QH       <12%
14  Cn1cnnc1C1(F)CCN(c2c(C#N)cc(C(F)(F)F)nc2-c2cnc3nn(C)c(C(F)(F)F)c3c2)CC1 [Example 10]  Mouse Hepatocyte Stability QH        53%
15  Cn1cnnc1C1(F)CCN(c2c(C#N)cc(C(F)(F)F)nc2-c2cc3cn(C(C)(C)C)nc3nc2C(F)F)CC1 [Example 14]  Mouse Hepatocyte Stability QH       <12%

* * *

- Tested on: SIRPα signalling induced by A549 cells
- assayComment: Assay B: SIRPα signalling assay using A549 cells
- Assay type: cell-based
- measurementConditions: Homo sapiens, Table 4, compounds of the invention, read-out: Inhibition of SIRPα signalling induced by A549 cells: IC50
pIC50: −log10 of the molar value.
attributeMeasured: pIC50

> print(dat)
                                    molecule  measvalue
 1  Cn1cnnc1C1(F)CCN(c2c(C#N)cc(C3CC3)nc2-c2cnc3nn(C)c(C(F)(F)F)c3c2)CC1       7.43
 2  Cn1cc(-c2cc(C#N)c(N3CCC(F)(c4nncn4C)CC3)c(-c3cnc4nn(C(F)(F)F)cc4c3)n2)cn1       7.57
 3  Cn1cnnc1C1(F)CCN(c2c(C#N)cc(-c3cccnc3)nc2-c2cnc3nn(C(F)(F)F)cc3c2)CC1       7.62
 4  Cn1cnnc1C1(F)CCN(c2c(C#N)cc(C(F)(F)F)nc2-c2cc3cn(C(C)(C)C)nc3nc2C(F)F)CC1       7.36
 5  Cn1cnnc1C1(F)CCN(c2c(C#N)cc(-c3ccc(F)cc3)nc2-c2ccnnc2)CC1       7.09
 6  Cn1cnnc1C1(F)CCN(c2c(C#N)cc(C3CC3(F)F)nc2-c2ccnnc2)CC1 (stereo not drawn)       7.09
 7  Cc1nn(C)c(C)c1-c1cc(C#N)c(N2CCC(F)(c3nncn3C)CC2)c(-c2cnc3nn(C(F)(F)F)cc3c2)n1       7.37
 8  Cc1ncc(-c2cc(C#N)c(N3CCC(F)(c4nncn4C)CC3)c(-c3cnc4nn(C(F)(F)F)cc4c3)n2)cn1       7.28
 9  Cc1cc(-c2nc(C3CC3)cc(C#N)c2N2CCC(F)(c3nncn3C)CC2)cnn1       6.84
10  Cn1cnnc1C1(F)CCN(c2c(C#N)cc(C(F)(F)F)nc2-c2cnc3nn(C)c(C(F)(F)F)c3c2)CC1       7.31
11  Cc1cc(C#N)c(N2CCC(F)(c3nncn3C)CC2)c(-c2cnc3nn(C(F)(F)F)cc3c2)n1       8.22
12  Cn1cnnc1C1(F)CCN(c2c(C#N)cc(C(C)(F)F)nc2-c2cnc3nn(C(F)(F)F)cc3c2)CC1       8.15
13  Cn1cnnc1C1(F)CCN(c2c(C#N)cc(-c3cnc(C(F)(F)F)nc3)nc2-c2cnc3nn(C(F)(F)F)cc3c2)CC1       6.96
14  Cn1cnnc1C1(F)CCN(c2c(C#N)cc(C3CC3)nc2-c2cnc3nn(C(F)(F)F)cc3c2)CC1       7.85
15  Cn1cnnc1C1(F)CCN(c2c(C#N)cc(C3CC3)nc2-c2ccnnc2)CC1       7.82

* * *

- assayComment: Assay C: permeability in CACO-2 cells
- Type: in vitro ADME
- measurementConditions: human, Caco-2, pH 7.2; pairs with and without 4-fluoropiperidyl, CACO2 cells; read-out: Efflux ratio (BA/AB)
efflux ratio reference
attributeMeasured: efflux ratio

> print(dat)
                                  smilesstr  attributemeasured  measvalue
1  Cn1cnnc1C1(F)CCN(c2c(C#N)cc(F)cc2-c2cnc3nn(C(C)(C)C)c(C(F)(F)F)c3c2)CC1       efflux ratio        0.8
2  Cn1cnnc1C1CCN(c2c(C#N)cc(F)cc2-c2cnc3nn(C(C)(C)C)c(C(F)(F)F)c3c2)CC1       efflux ratio        5.7
